target: T1, human CD3 expressed on cells (Jurkat cells; human primary T cells) (human, UniProt P07766 23-207; P04234 22-171; P09693 23-182); experiment: flow cytometry, 25 nM, human primary T cells
T1 construct: whole, on cells
T1 sequence (P07766 23-207, chain 1 of 3): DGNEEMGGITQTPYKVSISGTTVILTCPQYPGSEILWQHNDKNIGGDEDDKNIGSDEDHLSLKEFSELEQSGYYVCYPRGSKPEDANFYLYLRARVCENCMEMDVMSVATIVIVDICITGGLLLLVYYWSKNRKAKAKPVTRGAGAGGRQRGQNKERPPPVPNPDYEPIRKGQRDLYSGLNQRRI
T1 sequence (P04234 22-171, chain 2 of 3): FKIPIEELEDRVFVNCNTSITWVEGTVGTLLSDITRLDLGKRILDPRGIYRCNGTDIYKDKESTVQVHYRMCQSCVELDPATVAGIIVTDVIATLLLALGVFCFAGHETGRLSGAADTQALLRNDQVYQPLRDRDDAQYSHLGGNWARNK
T1 sequence (P09693 23-182, chain 3 of 3): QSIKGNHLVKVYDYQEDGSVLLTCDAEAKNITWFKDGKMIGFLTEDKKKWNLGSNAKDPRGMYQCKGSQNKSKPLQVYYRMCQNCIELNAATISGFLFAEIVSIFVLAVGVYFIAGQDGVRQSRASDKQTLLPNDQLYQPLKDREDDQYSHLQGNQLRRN
property.label: Binding (FOI)
Write the number in FOI without appending the unit.

Guide cases for Binding (FOI), answers given:
1. mAb 216 (antibody, V domains shown, VH/VL only) VH: QVQLVESGGGVVQPGRSLRLSCAASGFTFSGYGMHWVRQAPGKGLEWVAIIYYNGKKEYYADSVKGRFTISRDNSKNTLYLQMNSLRAEDTAVYYCTRGEGYNWFDPWGQGTLVTVSS VL: EIVMTQSPATLSVSPGERATLSCRASQSVSSNLAWYQQKPGQAPRLLIYGASTRATGIPARFSGSGSGTEFTLTISSLQSEDFAVYYCKQYKNWPLTFGGGTKVEIK
218
2. mAb 252 (antibody, V domains shown, VH/VL only) VH: EVQILESGGGLVQPGGSLRLSCVASGFTFRSYVMSWVRRAPGRGLEWVSGISTSGGNTYYADSVKGRFTISRDNSKNTLFLQMNGLRAEDTAVYYCAKLFSYYYYFMDVWGKGTTVTVSS VL: SYELTQPLSVSVALGQTARITCGGNNIGSKDVHWYQQKPGQAPVLVIYRDSNRPSGIPERFSGSNSGNTATLTISGAQAGDEADYYCQVWDRRTAVFGGGTQLTAL
270

Note: attention shifts to another entry.
Fill blank: measured Binding (FOI) of the binder mAb 198 (antibody, V domains shown, VH/VL only) VH: QVQLVESGGGVVQPGGSLRLSCAASGFTFSGYGMHWVRQAPGKGLEWVAIIWYNGRKTYYAESVKGRFTISRDNSKNTLSLQMNSLRIEDTAVYYCTTGQGYNWFDPWGQGTLVTVSS VL: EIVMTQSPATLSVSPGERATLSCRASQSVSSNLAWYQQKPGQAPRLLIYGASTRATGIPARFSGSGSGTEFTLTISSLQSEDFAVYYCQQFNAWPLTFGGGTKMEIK is ____. 231
